Consider the following variants and their measured fraction ligated readings.
B1: minF1; a variant is named by its letters at N, in order (parent)
chain: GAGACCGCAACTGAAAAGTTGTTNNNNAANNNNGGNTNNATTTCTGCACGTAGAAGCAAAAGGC

- Variants of: B1
- Assay: fraction ligated after 30 min (ligated reads / total reads); higher = more ligase activity
- Test parameters: with F1*subA RNA substrate (template-directed ligation), 42 °C
// response body must contain only the number

Some variants with known fraction ligated results, for comparison:
> print(dat)
   sequence.variant  recorded.value
1       TCAGGATGTGA         0.00269
2       TAGATGGAGTA         0.00154
3       ATCAAGGTGTA         0.00438

Inquiry: Using the record for CAAAGGATGTA A29T , report its fraction ligated.
Reply text: 0.00185

Inquiry: Query (variant): ACAAGGTGTGA A29T ; field requested: fraction ligated
Reply text: 0.00256

Inquiry: Reported fraction ligated for ATAATGGAGTA G34T : what is it?
Reply text: 0.00307
